test-description: Stability of CLBQ14 in rat plasma samples
Format: in vitro ADME, Sprague Dawley rat
measurement-conditions: Sprague Dawley, rat, Processed sample or auto-sampler stability, mean recovery ± SD, No IS
experimental-endpoint: recovery at 6 h (%)
Write the answer as a number in %, unit excluded.

*Q* Which value of recovery at 6 h has been reported for Oc1c(Br)cc(Cl)c2cccnc12 in the records?
*A* 95.5

* * *

test-description: Stability of CLBQ14 in rat plasma samples
Assay type: in vitro ADME, Sprague Dawley rat
measurement-conditions: Sprague Dawley, rat, Short-term (bench-top) stability, mean recovery ± SD
experimental-endpoint: recovery at 4 h (%)
Numbers only; they are read as %.

*Q* Which recovery at 4 h value belongs to Oc1c(Br)cc(Cl)c2cccnc12 [CLBQ14, 7-bromo-5-chloroquinolin-8-ol] ?
*A* 95.1
